Assay: chemical genetic growth profiling, strain panel (AID 1159580);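 also: tested at 20 µM; growth read once vehicle control cultures reached saturation at 30 °C; 1 = growth at the plate median or of vehicle wells; lower values mean less growth of the strain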
Settings: S. cerevisiae deletion strains, growth OD, locus YGL253W, strain hxk2
Screen size: about 5,500 compounds; about 2,000 (36%) were called active. Roughly 18% stayed inconclusive and do not appear here. Rule as the data show it: active = normalized growth mostly below about 0.91 (no sharp cut-off); inconclusive = no clear call, values can overlap the other calls; inactive = mostly above about 0.92. This is one part of the list.
Select the matching outcome among label 1 (active), label 0 (inactive)

Challenge: What classification did O=C(O)c1cccnc1C(=O)O end up with in this test?
Response given: label 0

Challenge: What classification did Oc1cccc2cccnc12 end up with in this test?
Response given: label 1

Challenge: What classification did C=C(C)C1Cc2c(ccc3c(=O)c4c(oc23)COc2cc(OC)c(OC)cc2-4)O1 (centres undefined) end up with in this test?
Response given: label 0

Challenge: What classification did O=C(N[C@@H](CO)[C@H](O)c1ccc([N+](=O)[O-])cc1)C(Cl)Cl end up with in this test?
Response given: label 0

Values were extracted from PubChem BioAssay AID1159580.
